Quick list: GI50 per entry.
test system: IGROV-1; assay: NCI tumour cell line growth inhibition, 48 h
The source made the active and inactive calls. Rule as the data show it: active = GI50 up to about 1.1 µM and inactive = higher.

A selection of reference data follows.
[
  {
    "molecule": "Cc1ccc(C(=O)NC(C)(C)C)cc1/N=N/N(C)C",
    "GI50": "> 100 µM (inactive)"
  },
  {
    "molecule": "CCOc1cc(C2CC(c3ccc(NS(=O)(=O)c4cc([N+](=O)[O-])ccc4C)cc3)=NN2S(=O)(=O)c2cc([N+](=O)[O-])ccc2C)ccc1O (stereo not drawn)",
    "GI50": "18.5 µM (inactive)"
  }
]

Next, consider the following molecule.
Lookup: GI50 / IGROV-1 / CCN(CC)CCCNc1ccc([N+](=O)[O-])c2nc3ccccc3c(N)c12
0.622 µM (active)

====

tested on: M14; experiment: NCI tumour cell line growth inhibition, 48 h
Activity calls are given as the source filed them. Rule as the data show it: active = GI50 up to about 1.1 µM and inactive = higher.
readoutType: GI50

A selection of reference data follows.
[
  {
    "compound": "COc1cc(C2C(C(=O)Nc3cc(F)c(F)cc3F)=C(C)NC(C)=C2C(=O)Nc2cc(F)c(F)cc2F)ccc1O",
    "readoutType": "GI50",
    "assayResult": "25.2 µM (inactive)"
  },
  {
    "compound": "CC1CN1c1c(C(=O)/C=C/c2ccccc2)c(-c2ccccc2)nn(C)c1=O (stereo not drawn)",
    "readoutType": "GI50",
    "assayResult": "17.1 µM (inactive)"
  },
  {
    "compound": "Cn1c(=O)c2c(no[n+]2[O-])c2ccccc21",
    "readoutType": "GI50",
    "assayResult": "12.4 µM (inactive)"
  },
  {
    "compound": "c1ccc(CN2COc3c(ccc4c5c(ccc34)CN(Cc3ccccc3)CO5)C2)cc1",
    "readoutType": "GI50",
    "assayResult": "> 100 µM (inactive)"
  },
  {
    "compound": "N#CC(/C(=N\\NC(N)=S)C(=O)NC1C2CC3CC(C2)CC1C3)c1ccc(Cl)cc1 (stereo not drawn)",
    "readoutType": "GI50",
    "assayResult": "> 100 µM (inactive)"
  }
]

Can you look up the measured GI50 of CC(NNC(=O)c1cc[n+]([BH2-]C#N)cc1)c1ccc(F)cc1 (stereo not drawn) for me?
> 100 µM (inactive)

Can you look up the measured GI50 of N=C(N)N/N=C\c1c(-c2cccc([N+](=O)[O-])c2)nc2sccn12 for me?
2.52 µM (inactive)

Can you look up the measured GI50 of COC(=O)c1c(OC)cccc1C(=O)O for me?
> 100 µM (inactive)

Can you look up the measured GI50 of NCCNc1nc(N2CCCC2)c2nc(Cl)c(NCc3ccccc3)nc2n1 for me?
1.67 µM (inactive)

Can you look up the measured GI50 of O=C(c1ccccc1)c1ccc2nc3n(c2c1)C(c1c(F)cccc1F)SC3 (stereo not drawn) for me?
3.46 µM (inactive)

Can you look up the measured GI50 of Cc1ccc(S(=O)(=O)Nc2ccccc2C(=O)c2ccc(C)c(C)c2)cc1 for me?
> 100 µM (inactive)

Can you look up the measured GI50 of Cc1cc(C(=O)N2CCN(Cc3ccccc3)CC2)c(C)o1 for me?
> 100 µM (inactive)

Can you look up the measured GI50 of O=C(c1ccccc1)N1CCC(Nc2nccs2)O1 (stereo not drawn) for me?
> 10 µM (inactive)

Can you look up the measured GI50 of CNc1ncnc2c1cnn2Cc1cn(CCCCO)nn1 for me?
> 100 µM (inactive)

Can you look up the measured GI50 of CCOP(=O)(OCC)/C(F)=C/c1ccc(F)cc1 for me?
> 100 µM (inactive)

Can you look up the measured GI50 of O=S1(=O)OCCOS(=O)(=O)C1I for me?
> 100 µM (inactive)

Can you look up the measured GI50 of CC(C)[Si](OCC1CC(C[C@H]2CC(C[C@H]3C[C@@H](CO[Si](C(C)C)(C(C)C)C(C)C)OC(C)(C)O3)OC(C)(C)O2)OC(C)(C)O1)(C(C)C)C(C)C (stereo partly drawn) for me?
> 100 µM (inactive)

Can you look up the measured GI50 of Cc1ccc([S+]([O-])(=Nc2ccccc2)C(C(C)C)C(C)(C)Cl)cc1 (stereo not drawn) for me?
18.9 µM (inactive)

Can you look up the measured GI50 of CCOc1cc(C2CC(c3ccc(NS(=O)(=O)c4cc([N+](=O)[O-])ccc4C)cc3)=NN2S(=O)(=O)c2cc([N+](=O)[O-])ccc2C)ccc1O (stereo not drawn) for me?
34.1 µM (inactive)

Can you look up the measured GI50 of N#Cc1nc(CCc2nc(C#N)c(N)o2)oc1N for me?
> 10 µM (inactive)

Can you look up the measured GI50 of O=c1c2cc(-c3ccccc3)cnc2sn1-c1ccc([N+](=O)[O-])cc1 for me?
50.6 µM (inactive)
